Reference source: PubChem BioAssay (NCI)

TGI for assorted compounds
Tested on: 786-0 renal
Test: NCI tumour cell line growth inhibition, 48 h
Where a SMILES comes first, the peptide text is derived from it. The star is where a group is joined. Boc = CC(C)(C)OC(=O)*
assay.metric: TGI

>>> reported_result("COC(=O)C(Cc1c[nH]c2ccccc12)NC(=O)C(Cc1c[nH]c2ccccc12)NC(=O)C(Cc1c[nH]c2ccccc12)NC(=O)C(Cc1c[nH]c2ccccc12)NC(=O)C(Cc1c[nH]c2ccccc12)NC(=O)C(Cc1c[nH]c2ccccc12)NC(=O)OC(C)(C)C (stereo not drawn) (Boc-WWWWWW-OMe; configuration not given here)")
"> 100 µM"
>>> reported_result("COc1cc2c(cc1OC)C(C(CO)CO)N(CC(O)CCl)CC2 (stereo not drawn)")
"> 100 µM"
>>> reported_result("Nc1ncnc2c1nnn2C1C=CC(COS(N)(=O)=O)C1 (stereo not drawn)")
"33.3 µM"
>>> reported_result("Nn1c(COc2cccc(OCc3n[nH]c(=S)n3N)c2)n[nH]c1=S")
"> 100 µM"
>>> reported_result("CCCCCC[N+](C)(C)Cc1ccc(C[N+](C)(C)CCCCCC)cc1")
"18.1 µM"
>>> reported_result("CCCCCC(=O)C(C)C1=Nc2nnc(CCCCCCCc3nnc4n3C(=O)C(C(C)C(=O)CCCCC)=N4)n2C1=O (stereo not drawn)")
"> 100 µM"
>>> reported_result("CN(C)CCCNC(=O)c1cc(NC(=O)c2cc(NC(=O)CCc3c[nH]c4ccccc34)cn2C)cn1C")
"> 100 µM"
>>> reported_result("COC(=O)/C=C1/CCC(C(=O)OC)N1 (stereo not drawn)")
"> 100 µM"

====

System: HL-60(TB) leukemia
Assay: NCI tumour cell line growth inhibition, 48 h; in the data active means GI50 below about 0.43 µM; inactive means the rest
Outcome codes: active, inactive

>>> class("CCN(Cc1cccc(F)c1)c1ccc(CO)c(Cl)c1")
"inactive"
>>> class("COc1cccc(-c2nc3sccn3c2-c2ccnc(NCCCNS(=O)(=O)c3cccc(F)c3)c2)c1")
"inactive"
>>> class("Cc1sc2nc(-c3ccncc3)c(/C=N/N=C(N)N)n2c1C")
"inactive"
>>> class("COc1cc(/C=C2\\C(=O)Nc3cc(C)c(O)cc32)cc(OC)c1OC")
"inactive"
>>> class("COc1ccc(S(=O)(=O)N2CC(C)(C)CN(S(=O)(=O)c3ccc(OC)cc3)C2C(=O)NO)cc1")
"inactive"
>>> class("COC(=O)CCc1c[nH]c2ccc(N(CCCl)CCCl)cc12")
"inactive"
>>> class("Cc1cc(S(=O)(=O)Nc2nc3cscc3c(=O)n2Cc2ccccc2)c(S)cc1Cl")
"inactive"
>>> class("CCOC(=O)c1sc(-c2ccc(OS(=O)(=O)c3ccc(Br)s3)c(C=O)c2)nc1C")
"inactive"
>>> class("COc1cc(-c2cc3ncccc3c3nc(N)c4cccnc4c23)cc(OC)c1OC")
"active"
>>> class("[Cl-].[O-]/N=C(\\c1ccccc1)c1ccccn1.[O-]/N=C(\\c1ccccc1)c1ccccn1.[O-]/N=C(\\c1ccccc1)c1ccccn1.[Sm+3]")
"inactive"
>>> class("CCC[CH2][Sn]([CH2]CCC)([CH2]CCC)[O]c1ccc(Cl)cc1Cl")
"active"
>>> class("OCc1ccc(-c2ccc(-c3ccc(CO)o3)[se]2)o1")
"inactive"
>>> class("COc1ccc(-c2cc(=O)c3ccc(C)nc3[nH]2)cc1")
"inactive"
>>> class("S=C(Nc1ccc(Br)cc1)Nc1ccc(Br)cc1")
"inactive"
>>> class("COc1ccc2c(c1)C(=O)c1c-2n(CCCN=[N+]=[N-])c(=O)c2cc(OC)c(OC)cc12")
"inactive"
>>> class("COC(=O)c1c2c(c[n+]([O-])c1C)C(=O)C=CC2=O")
"inactive"
>>> class("CC(=O)[O][Ga]([Cl])[O]C(C)=O")
"inactive"
>>> class("Cn1cc(C2=C(c3cn(CCCCN)c4ccccc34)C(=O)NC2=O)c2ccccc21")
"inactive"
>>> class("Cc1nn(-c2nc3ccccc3[nH]2)c(N)c1-c1ccc(Cl)cc1")
"inactive"
>>> class("COc1cc(OC)cc(N(CCNC(C)C)c2ccc3ncc(-c4cnn(C)c4)nc3c2)c1")
"inactive"
>>> class("O=C(CO[N+](=O)[O-])Nc1ccc(C(=O)/C=C/c2ccc(Cl)cc2)cc1")
"inactive"
>>> class("O=c1c(Oc2ccc(F)cc2F)cc2cnc(NC3CCOCC3)nc2n1CCCO")
"inactive"

====

Test system: UACC-62 melanoma
Assay: NCI tumour cell line growth inhibition, 48 h
assay.metric: TGI (µM)

>>> reported_result("N#CC1=C(N)n2c(s/c(=C\\c3ccc(Cl)cc3)c2=O)=C(c2nc3ccccc3[nH]2)C1c1ccc(Cl)cc1 (centres undefined)")
2.92
>>> reported_result("CCCCCC[N+](C)(C)Cc1ccc(C[N+](C)(C)CCCCCC)cc1")
29.7
>>> reported_result("CC(=O)O[C@H]1CC[C@@]2(C)C(=CC[C@H]3[C@@H]4CC[C@H](c5cc(C(F)(F)F)n(C(C)=O)n5)[C@@]4(C)CC[C@@H]32)C1")
24.5
>>> reported_result("COC(=O)CCC(=O)NC1=C(NCc2ccccc2)C(=O)c2ccccc2C1=O")
33.1
>>> reported_result("COc1cc(NC(N)=NCCC(C)(C)Oc2ccc(C(F)(F)F)cc2)ncc1C#N")
3.18

====

Listed below: TGI values for each entry.
System: U251 CNS
Assay: NCI tumour cell line growth inhibition, 48 h
assay.metric: TGI (µM)

>>> reported_result("CCC[CH2][Sn]1([CH2]CCC)[O]CC(Cc2ccccc2)[O]1 (stereo not given)")
3.91
>>> reported_result("O=S(=O)(CCBr)CCBr")
29.2

====

Test system: OVCAR-5 ovarian
Assay: NCI tumour cell line growth inhibition, 48 h
As shown below, each of these compounds has a reported TGI value.
assay.metric: TGI

>>> reported_result("CC(C)CC(NC(=O)c1cccc(O)c1O)C(=O)NCc1cc(CNC(=O)C(CC(C)C)NC(=O)c2cccc(O)c2O)cc(CNC(=O)C(CC(C)C)NC(=O)c2cccc(O)c2O)c1 (stereo not given)")
"27.1 µM"
>>> reported_result("CCOC(=O)C1N(S(=O)(=O)c2ccc(C)cc2)CCC12c1ccccc1N(C(C)=O)C2c1ccc(OC)c(OC)c1 (stereo not given)")
"> 100 µM"
>>> reported_result("Cc1ccc(-c2csc(/N=C3\\C(=O)Nc4ccccc43)n2)cc1")
"4.57 µM"
>>> reported_result("Nn1c(COc2cccc(OCc3n[nH]c(=S)n3N)c2)n[nH]c1=S")
"> 100 µM"
>>> reported_result("COCCCNC(=O)C1C(=O)N(CCCOC)C(=O)/C1=N\\N (stereo not given)")
"> 100 µM"
>>> reported_result("O=C(CC(c1ccccc1)c1c(O)c2ccccc2oc1=O)c1ccccc1 (stereo not given)")
"> 100 µM"
>>> reported_result("COC(=O)C(Cc1c(C2Nc3ccccc3C2CC(NC(=O)CNC(C)=O)C(=O)OC)[nH]c2ccccc12)NC(=O)CNC(C)=O (stereo not given)")
"> 100 µM"
>>> reported_result("COC(=O)CCC(=O)NC1=C(NCc2ccccc2)C(=O)c2ccccc2C1=O")
"98.7 µM"
>>> reported_result("Cc1ccsc1/C=N/Nc1nc2ccccc2s1")
"> 100 µM"
>>> reported_result("CCOC(=O)C1(C/C=C(/C)Cl)CCCC1=O (stereo not given)")
"> 100 µM"
>>> reported_result("CC(=O)OCCCOCn1c(Cc2ccccc2)c(C)c(=O)[nH]c1=O")
"> 100 µM"
>>> reported_result("CC[N+](CC)=c1sc2c(s1)C(c1ccc(Cl)cc1)Oc1ccc(Cl)cc1-2 (stereo not given)")
"6.11 µM"
>>> reported_result("Oc1[nH]c2ccccc2c1N=Nc1ccccn1")
"> 100 µM"
>>> reported_result("COC(=O)NCCc1[nH]nc2c1C(=O)C=C(N1CCOCC1)C2=O")
"> 100 µM"
>>> reported_result("O=C(c1ccccc1)N1CCN(C(=S)N(C(=O)c2ccccc2)c2ccccc2)C1=S")
"42.1 µM"
>>> reported_result("CC(=O)N=C1N(/C=C2\\C(=O)Oc3ccccc3C2=O)C(=O)/C(=C/c2ccc(OC(C)=O)cc2)N1C")
"> 100 µM"
>>> reported_result("O=C1c2ccc(O)cc2C(=O)c2ccc(O)cc21")
"> 100 µM"
>>> reported_result("COc1ccc2nc3ccc(OC)cc3c(SCCO)c2c1")
"> 100 µM"
>>> reported_result("CC1=Nc2nc(Cl)cn2C(=O)C1(Cl)Cl")
"> 10 µM"
>>> reported_result("C1CCC2(CC1)O[C@@H]1[C@@H](O2)[C@@H](O[C@H]2O[C@@H]3COC4(CCCCC4)O[C@H]3[C@@H]3OC4(CCCCC4)O[C@@H]23)O[C@@H]2COC3(CCCCC3)O[C@@H]12")
"> 100 µM"
